# protocol.summary: small-molecule microarray binders of probe aNog, primary screen, biochemical, biotinylated probe, 635/667 nm fluorescence (AID 1115);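 note: probe is biotinylated aNog protein used at 0.15 µg/mL for 1 h at 4 C; z-score combines 667 nm fluorescence of each spot with its signal to noise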
# test.settings: higher = more signal
outcome.measure: composite z-score
Please reply with the number alone, leaving off any unit.

Worked examples, 5 molecules total:
molecule	outcome.measure	readout.value
Cc1ccc(S[C@]2(C(=O)NC3CC3)CC(=O)N(C3CCCCC3)[C@@H]2c2ccc(CO)cc2I)cc1	composite z-score	0.45
O=C1OCCC=C[C@H]2OC34C=CCN(Cc5ccccc5)C(=O)[C@H]3N(CCCO)C(=O)[C@@H]4C12 (stereo not given in full)	composite z-score	-0.0602
C=C(C(=O)CC[C@H](OC(C)=O)c1ccc(OCCO)cc1)C(C)C	composite z-score	-0.0965
CCCCCN1CC=CC23O[C@@H]4/C=C\CCC(C)OC(=O)C4[C@H]2C(=O)N(CCCCCO)[C@@H]3C1=O (stereo not given in full)	composite z-score	-0.24
CCCCC=C[C@@H](NC(=O)c1ccc(C(=O)OC)cc1)c1ccccc1	composite z-score	0.122

Data point: `COCCOC(=O)N1C(=O)[C@@]2(c3cc(C#CCC(C(=O)OC)C(=O)OC)ccc31)[C@H](c1ccccc1OCCO)N1[C@H](c3ccccc3)[C@H](c3ccccc3)OC(=O)[C@H]1[C@@H]2C(N)=O` ; composite z-score = 0.141
